- assay-target: p110γ (Homo sapiens)
- Sequence (P48736 whole entry): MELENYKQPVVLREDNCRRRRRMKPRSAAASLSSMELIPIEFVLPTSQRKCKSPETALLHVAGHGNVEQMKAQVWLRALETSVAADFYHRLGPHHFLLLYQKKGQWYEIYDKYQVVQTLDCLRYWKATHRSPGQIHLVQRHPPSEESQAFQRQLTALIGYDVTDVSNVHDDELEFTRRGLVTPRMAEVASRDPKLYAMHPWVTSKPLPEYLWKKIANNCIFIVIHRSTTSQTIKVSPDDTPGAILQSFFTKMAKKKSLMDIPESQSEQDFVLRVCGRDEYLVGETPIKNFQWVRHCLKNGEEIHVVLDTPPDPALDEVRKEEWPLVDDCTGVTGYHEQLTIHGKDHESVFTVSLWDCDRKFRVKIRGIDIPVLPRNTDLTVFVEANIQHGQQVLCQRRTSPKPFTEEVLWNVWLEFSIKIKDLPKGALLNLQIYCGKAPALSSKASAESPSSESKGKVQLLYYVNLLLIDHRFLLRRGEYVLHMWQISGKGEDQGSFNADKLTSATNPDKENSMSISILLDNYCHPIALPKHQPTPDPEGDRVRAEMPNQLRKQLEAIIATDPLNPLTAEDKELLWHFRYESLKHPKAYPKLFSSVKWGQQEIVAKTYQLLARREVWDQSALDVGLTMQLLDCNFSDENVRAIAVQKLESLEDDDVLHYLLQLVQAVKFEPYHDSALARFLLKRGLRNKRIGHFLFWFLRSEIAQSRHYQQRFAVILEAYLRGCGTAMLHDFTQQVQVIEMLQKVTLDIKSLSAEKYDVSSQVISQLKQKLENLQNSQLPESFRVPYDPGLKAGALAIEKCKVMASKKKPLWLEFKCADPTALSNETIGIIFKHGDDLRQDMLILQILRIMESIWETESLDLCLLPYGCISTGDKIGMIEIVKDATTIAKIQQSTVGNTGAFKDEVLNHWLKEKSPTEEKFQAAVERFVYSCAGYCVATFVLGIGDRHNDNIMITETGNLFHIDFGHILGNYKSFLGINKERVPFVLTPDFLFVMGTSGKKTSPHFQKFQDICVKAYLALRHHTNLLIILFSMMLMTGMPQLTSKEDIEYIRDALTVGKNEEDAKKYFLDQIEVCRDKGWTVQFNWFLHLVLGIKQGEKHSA
- protocol: Transcreener KINASE Assay, kinase inhibition of p110γ
- Type: biochemical
- experimental-context: 1 uM test compound
experimental-endpoint: PI3Kγ IH % @ 1 uM (%)
State just the number; it will be interpreted in %.

Fill blank: measured PI3Kγ IH % @ 1 uM of the compound Nc1ncc(C(=O)C2CC2)c(N2CC[C@H]2c2nn3ccc(Cl)c3c(=O)n2-c2ccccc2)n1 [Compound 326] is ____.
50.7

Fill blank: measured PI3Kγ IH % @ 1 uM of the compound CC(=O)c1cnc(N)nc1N[C@H](C)c1cc2ncc(Cl)n2c(=O)n1-c1ccccc1 (single isomer, unassigned) [Compound 448] is ____.
82.3

Fill blank: measured PI3Kγ IH % @ 1 uM of the compound N#Cc1cnc(N)nc1N1CC(=O)C[C@H]1c1nn2ccc(Cl)c2c(=O)n1-c1ccccc1 [Compound 403] is ____.
93.1

Fill blank: measured PI3Kγ IH % @ 1 uM of the compound CC(C)Cn1c([C@@H]2CCN2c2nc(N)ncc2C#N)nn2ccc(Cl)c2c1=O [Compound 260] is ____.
90.9

Fill blank: measured PI3Kγ IH % @ 1 uM of the compound CC(Nc1ncnc2[nH]cnc12)c1cn2ccc(Cl)c2c(=O)n1-c1ccc(F)cc1 (centres unmarked) [Compound 78] is ____.
91.2

Fill blank: measured PI3Kγ IH % @ 1 uM of the compound Nc1nc2c(c(N3CCC[C@H]3c3nn4ccc(Br)c4c(=O)n3-c3ccccc3)n1)CCC2 [Compound 245] is ____.
77.5

Fill blank: measured PI3Kγ IH % @ 1 uM of the compound O=c1c2c(F)ccn2nc([C@@H]2CCCN2c2ncnc3[nH]cnc23)n1-c1ccccc1 [Compound 190] is ____.
84.1
